# reported pIC50; entries follow
Biological target: PEPT1 (Homo sapiens, UniProt P46059)
Sequence (P46059 whole entry): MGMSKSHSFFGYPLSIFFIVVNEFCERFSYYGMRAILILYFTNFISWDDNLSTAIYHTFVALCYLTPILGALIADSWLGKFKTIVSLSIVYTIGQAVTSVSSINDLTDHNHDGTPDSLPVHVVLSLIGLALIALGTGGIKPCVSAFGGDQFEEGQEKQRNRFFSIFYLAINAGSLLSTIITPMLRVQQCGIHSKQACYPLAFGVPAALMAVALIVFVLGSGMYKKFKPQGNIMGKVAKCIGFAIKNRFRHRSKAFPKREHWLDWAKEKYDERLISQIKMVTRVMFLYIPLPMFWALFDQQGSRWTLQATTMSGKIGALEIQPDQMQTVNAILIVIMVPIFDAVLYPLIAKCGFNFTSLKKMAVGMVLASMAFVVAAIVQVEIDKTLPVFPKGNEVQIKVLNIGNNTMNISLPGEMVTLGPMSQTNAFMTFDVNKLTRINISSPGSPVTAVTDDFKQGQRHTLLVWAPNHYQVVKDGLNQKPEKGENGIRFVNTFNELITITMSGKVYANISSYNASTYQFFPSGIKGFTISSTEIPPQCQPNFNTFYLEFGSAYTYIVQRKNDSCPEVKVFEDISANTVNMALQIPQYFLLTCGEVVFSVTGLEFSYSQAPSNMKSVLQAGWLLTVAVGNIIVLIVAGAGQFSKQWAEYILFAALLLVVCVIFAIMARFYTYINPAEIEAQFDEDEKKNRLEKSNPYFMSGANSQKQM
Assay: [3H]Gly-Sar uptake inhibition in Caco-2 cells
Type: cell-based
Details: read-out: IC50 [3H]Gly-Sar uptake inhibition Caco-2; Caco-2 cells, 10 μmol/L Gly-Sar, 30 min; mean ± SD, n = 3
Scale: pIC50 equals -log10([C]), with [C] in mol/L.

# input I am curious: what pIC50 value has been reported for N[C@@H](Cc1ccccc1)C(=O)OC[C@H]1O[C@@H](n2cc(F)c(=O)[nH]c2=O)C[C@@H]1O ?
# output 2.70

# input Could you do the same for CC(C)[C@H](N)C(=O)OC[C@H]1O[C@@H](n2cc(F)c(=O)[nH]c2=O)C[C@@H]1O , please?
# output 2.73

# input Could you do the same for CC[C@H](C)[C@H](N)C(=O)NCC(=O)OC[C@H]1O[C@@H](n2cc(F)c(=O)[nH]c2=O)C[C@@H]1O , please?
# output 3.41

# input Could you do the same for CC[C@H](C)[C@H](N)C(=O)OC[C@H]1O[C@@H](n2cc(F)c(=O)[nH]c2=O)C[C@@H]1O , please?
# output 3.14

# input Could you do the same for CC(C)C[C@H](N)C(=O)NCC(=O)OC[C@H]1O[C@@H](n2cc(F)c(=O)[nH]c2=O)C[C@@H]1O , please?
# output 2.42

====

Biological target: UniProt:P19971
Sequence (P19971 11-482, species assumed): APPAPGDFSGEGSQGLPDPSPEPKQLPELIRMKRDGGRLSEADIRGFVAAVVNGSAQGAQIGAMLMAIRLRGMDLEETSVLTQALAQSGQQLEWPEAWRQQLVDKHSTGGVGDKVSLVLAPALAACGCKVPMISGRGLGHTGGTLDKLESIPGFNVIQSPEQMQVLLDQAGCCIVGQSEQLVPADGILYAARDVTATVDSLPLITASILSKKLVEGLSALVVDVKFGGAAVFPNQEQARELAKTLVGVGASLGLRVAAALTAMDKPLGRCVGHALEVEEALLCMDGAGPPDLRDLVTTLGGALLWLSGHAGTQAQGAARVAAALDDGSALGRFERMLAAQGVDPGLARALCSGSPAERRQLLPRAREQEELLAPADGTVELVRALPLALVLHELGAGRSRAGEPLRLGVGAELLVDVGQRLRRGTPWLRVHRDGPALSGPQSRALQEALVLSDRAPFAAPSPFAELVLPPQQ
Test: Resistance to metabolism by thymidine phosphorylase
Type: in vitro ADME
Settings: 200 μM substrate, TP 2.0 ng/μL, phosphate buffer pH 7.0, 37 °C; mean ± SD, n = 3
MEASUREMENT_NAME: t1/2 in the presence of thymidine phosphorylase

Here are 6 compounds together with their reported answers.
> print(dat)
                              record.smiles  value.reported
1  NCC(=O)OC[C@H]1O[C@@H](n2cc(F)c(=O)[nH]c2=O)C[C@@H]1O    4.17 ± 0.9 h
2  N[C@@H](Cc1ccccc1)C(=O)NCC(=O)OC[C@H]1O[C@@H](n2cc(F)c(=O)[nH]c2=O)C[C@@H]1O    1.98 ± 0.5 h
3  CC(C)C[C@H](N)C(=O)NCC(=O)OC[C@H]1O[C@@H](n2cc(F)c(=O)[nH]c2=O)C[C@@H]1O   2.3 ± 0.183 h
4  CC[C@H](C)[C@H](N)C(=O)NCC(=O)OC[C@H]1O[C@@H](n2cc(F)c(=O)[nH]c2=O)C[C@@H]1O    3.72 ± 0.9 h
5  CC[C@H](C)[C@H](N)C(=O)OC[C@H]1O[C@@H](n2cc(F)c(=O)[nH]c2=O)C[C@@H]1O         >8.33 h
6  N[C@@H](Cc1ccccc1)C(=O)OC[C@H]1O[C@@H](n2cc(F)c(=O)[nH]c2=O)C[C@@H]1O         >8.33 h

We now examine a further compound.
# input I am curious: what t1/2 in the presence of thymidine phosphorylase value has been reported for N[C@@H](Cc1ccccc1)C(=O)N[C@@H](Cc1ccc(O)cc1)C(=O)OC[C@H]1O[C@@H](n2cc(F)c(=O)[nH]c2=O)C[C@@H]1O ?
# output >8.33 h

====

Tested on: Caco-2 cell homogenates
Test: Enzymatic stability in Caco-2 cell homogenate
Format: in vitro ADME, human
Conditions: 500 μg/mL protein, 37 °C, mean ± SD, n = 3
Criterion: t1/2 cell homogenates Caco-2 meeting or surpassing 6 min. Met: 1. Not met: 0.

Example results:
> print(dat)
                              record.smiles  discrete.label
1  N[C@@H](Cc1ccccc1)C(=O)NCC(=O)OC[C@H]1O[C@@H](n2cc(F)c(=O)[nH]c2=O)C[C@@H]1O               1
2  NCC(=O)OC[C@H]1O[C@@H](n2cc(F)c(=O)[nH]c2=O)C[C@@H]1O               1
3  CC(C)[C@H](N)C(=O)OC[C@H]1O[C@@H](n2cc(F)c(=O)[nH]c2=O)C[C@@H]1O               1
4  CC(C)C[C@H](N)C(=O)NCC(=O)OC[C@H]1O[C@@H](n2cc(F)c(=O)[nH]c2=O)C[C@@H]1O               0
5  N[C@@H](Cc1ccccc1)C(=O)OC[C@H]1O[C@@H](n2cc(F)c(=O)[nH]c2=O)C[C@@H]1O               1

# input Is it the case that CC[C@H](C)[C@H](N)C(=O)OC[C@H]1O[C@@H](n2cc(F)c(=O)[nH]c2=O)C[C@@H]1O has t1/2 cell homogenates Caco-2 reaching or exceeding 6 min?
# output 1

# input Could you do the same for CC(C)C[C@H](N)C(=O)OC[C@H]1O[C@@H](n2cc(F)c(=O)[nH]c2=O)C[C@@H]1O , please?
# output 0

# input Could you do the same for N[C@@H](Cc1ccccc1)C(=O)N[C@@H](Cc1ccc(O)cc1)C(=O)OC[C@H]1O[C@@H](n2cc(F)c(=O)[nH]c2=O)C[C@@H]1O , please?
# output 1

# input Could you do the same for CC[C@H](C)[C@H](N)C(=O)NCC(=O)OC[C@H]1O[C@@H](n2cc(F)c(=O)[nH]c2=O)C[C@@H]1O , please?
# output 1

====

# reported t1/2 cell homogenates Capan-2; entries follow
Tested on: Capan-2 cell homogenates
Assay: Enzymatic stability in Capan-2 cell homogenate
Assay type: in vitro ADME, human
Conditions: 500 μg/mL protein, 37 °C, mean ± SD, n = 3
Hi! Could you send only the number? It should be in min, unit omitted.

> print(dat)
                              record.smiles  value.reported
1  N[C@@H](Cc1ccccc1)C(=O)N[C@@H](Cc1ccc(O)cc1)C(=O)OC[C@H]1O[C@@H](n2cc(F)c(=O)[nH]c2=O)C[C@@H]1O            42.8
2  CC(C)C[C@H](N)C(=O)NCC(=O)OC[C@H]1O[C@@H](n2cc(F)c(=O)[nH]c2=O)C[C@@H]1O             3.9
3  N[C@@H](Cc1ccccc1)C(=O)OC[C@H]1O[C@@H](n2cc(F)c(=O)[nH]c2=O)C[C@@H]1O             3.0
4  CC(C)C[C@H](N)C(=O)OC[C@H]1O[C@@H](n2cc(F)c(=O)[nH]c2=O)C[C@@H]1O             4.7

We now examine a further compound.
# input I am curious: what t1/2 cell homogenates Capan-2 value has been reported for NCC(=O)OC[C@H]1O[C@@H](n2cc(F)c(=O)[nH]c2=O)C[C@@H]1O ?
# output 49.7

====

Experiment: Chemical stability
Type: physicochemical
Details: pH 7.4 phosphate buffer, 37 °C; mean ± SD, n = 3
Criterion: t1/2 buffer pH 7.4 meeting or surpassing 300 min. Met: Satisfied. Not met: Not satisfied.

Example results:
> print(dat)
                              record.smiles  discrete.label
1  CC[C@H](C)[C@H](N)C(=O)OC[C@H]1O[C@@H](n2cc(F)c(=O)[nH]c2=O)C[C@@H]1O       Satisfied
2  CC(C)C[C@H](N)C(=O)OC[C@H]1O[C@@H](n2cc(F)c(=O)[nH]c2=O)C[C@@H]1O   Not satisfied
3  N[C@@H](Cc1ccccc1)C(=O)OC[C@H]1O[C@@H](n2cc(F)c(=O)[nH]c2=O)C[C@@H]1O   Not satisfied
4  CC(C)C[C@H](N)C(=O)NCC(=O)OC[C@H]1O[C@@H](n2cc(F)c(=O)[nH]c2=O)C[C@@H]1O   Not satisfied

# input Is it the case that CC[C@H](C)[C@H](N)C(=O)NCC(=O)OC[C@H]1O[C@@H](n2cc(F)c(=O)[nH]c2=O)C[C@@H]1O has t1/2 buffer pH 7.4 reaching or exceeding 300 min?
# output Not satisfied
